assay: reduction of polyQ htt aggregates in cells – imaging, exon1htt(103Q)mCFP cells, high-content imaging, primary screen (AID 483); settings: exon1htt(103Q)mCFP cell line, aggregate imaging, at 2 µM; active compounds read high;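 further: compound exposure lasted 3 days before fixation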
Measured Endpoint: inhibition of aggregation (%)
Return type: number; implicit unit %.

// below: answered molecules
{"columns": ["Molecule", "inhibition of aggregation [%]"],
 "data": [
  ["COc1ccc(C(=O)C(C)(C)NO)cc1", 12.4],
  ["CC(C)CC12CN3CCN(CC(C3)/C1=N/O)C2", -20],
  ["C(#CCN1CCOCC1)COCC#Cc1ccccc1", 12.8],
  ["CC1CCN2c3nc4ccccn4c(=O)c3CC3(C(=O)N(C)C(=O)N(C)C3=O)C2C1 (configuration not stated)", 11.4]
]}

Query: Quick one: inhibition of aggregation of COCCOC(=O)C1=C(N)Oc2c(c(=O)oc3ccccc23)C1c1ccncc1 (configuration not stated) ?
Result: 1.7

Query: Same question for `O=C(O)c1nonc1-c1nonc1C(=O)O` please.
Result: 14.6

Query: Same question for C#CCN(C)C(C)Cc1ccccc1 (configuration not stated) please.
Result: 13.6

Values were extracted from PubChem BioAssay.
